All figures here come from PubChem BioAssay (NCI).

Tested on: HOP-62 NSCLC
measurement.protocol: NCI-60 one-dose screen, 48 h (100 = growth as untreated, 0 = no growth, -100 = all killed)
assay.setup: 10 µM unless noted
The panel holds about 83,000 compounds, 20% with a hit somewhere; the sample as a whole holds those more often. The source made the active and inactive calls. Rule for the calls: active = growth percent below 10; inactive = the rest.
assay.readout: growth

1. CCCCC(CCc1ccccn1)C(=O)c1ccccc1 (centres undefined) = 106% (inactive)
2. Fc1ccc2nc(-c3ccc(-c4noc(-c5ccc(Cl)cc5)n4)cc3)[nH]c2c1 = 103% (inactive)
3. Cc1[nH]nc2ccc3nc(-c4ccc5[nH]ncc5c4)c4c(c3c12)CCCC4 = 18.5% (inactive)

Now look at this entry.
Lab book: growth of C/C(CC(=O)NNc1ccc([N+](=O)[O-])cc1)=N\Nc1ccc([N+](=O)[O-])cc1 noted as 83% (inactive)

---

growth listing for selected compounds.
Test system: DU-145 prostate
measurement.protocol: NCI-60 one-dose screen, 48 h (100 = growth as untreated, 0 = no growth, -100 = all killed)
assay.setup: 10 µM unless noted
This is part of a sample that, as a whole, favours compounds with a hit. Of some 83,000 tested, about 20% had one in any assay. Active and inactive are the calls of the source. How the source made its calls: active means growth percent below 10; inactive means the rest.

// worked examples, growth included
1. COc1ccc(/C=C/C(=O)c2ccc(NC(=O)CSc3nnc(-c4ccc(Cl)cc4)n3-c3ccccc3)cc2)cc1 = 106% (inactive)
2. Cc1ccc(N=CNN=C(N)N)cc1 = 113% (inactive)
3. O=C1Nc2ccccc2/C1=C/c1c[nH]c2ccccc12 = 98.1% (inactive)
4. COc1ccc(-c2nsc3c2NC(=O)CC3c2ccc3c(c2)OCO3)cc1 (stereo unspecified) = 14.8% (inactive)
5. CN(C)c1ccc(/C=N/Nc2nnc3n2N=C(c2ccc(Cl)cc2)CS3)cc1 = 100% (inactive)

The reported growth of the compound CC(OC(=O)Nc1cccc(Cl)c1)C(=O)O (stereo unspecified) was 113% (inactive)

Field growth (entry C#CC[C@@H]1C[C@]2(C)[C@H]3CC[C@@H]4[C@H]5C(C(=C)C)CC[C@]5(C(=O)NCCN(CCN)CCN)CC[C@@]4(C)[C@]3(C)CC[C@H]2C(C)(C)[C@H]1OC(C)=O (stereo partly specified) ) reads 95.1% (inactive)

For Cc1[nH]n(C(=O)c2ccncc2)c(=O)c1N=Nc1ccc(O)c(C(=O)O)c1 the compound record lists growth as 132% (inactive)

The compound identified as COc1cccc(NC(=O)[C@H](C(C)C)n2c(=O)[nH]c3ccccc3c2=O)c1 registered its growth at 107% (inactive)

---

System: KM12 colon
measurement.protocol: NCI-60 one-dose screen, 48 h (100 = growth as untreated, 0 = no growth, -100 = all killed)
assay.setup: 10 µM unless noted
The panel holds about 83,000 compounds, 20% with a hit somewhere; the sample as a whole holds those more often.
Quick list: growth per entry.
Quick note: give the figure in %, leave out the unit.

Examples from the recorded data:
1. COC(=O)c1cc2oc(/C=N/NC(=O)c3cc4oc(-c5cccc(C(F)(F)F)c5)cc4[nH]3)cc2n1Cc1ccccc1 = 88.3
2. COc1ccc(-c2nc3ccc(Cc4ccc5nc(-c6ccc(OC)cc6)[nH]c5c4)cc3[nH]2)cc1 = 49.1
3. O=C1C=CC(=O)N1c1cccc(N2C(=O)C=CC2=O)c1 = 122
4. OC(c1cc2cc(Cl)ccc2c2cc(C(F)(F)F)ccc12)C1CCCCN1 (configuration not stated) = -90.9
5. CCc1ccc(Nc2cc(C)c3ccc(O)cc3n2)cc1 = 53.9

Per the record, O=C(NCCNC(=O)c1cc(S(=O)(=O)NCCc2ccccc2)c(O)c(O)c1O)c1cc(S(=O)(=O)NCCc2ccccc2)c(O)c(O)c1O has growth of 34.1

compound Cc1cc(C)c2c(n1)sc1c(Nc3ccc(O)cc3)ncnc12 , growth observed: 50.3

---

System: LOX IMVI melanoma
measurement.protocol: NCI-60 one-dose screen, 48 h (100 = growth as untreated, 0 = no growth, -100 = all killed)
assay.setup: 10 µM unless noted
The panel holds about 83,000 compounds, 20% with a hit somewhere; the sample as a whole holds those more often.
The compounds listed here are annotated with their growth.
Report as a plain number; the unit % is understood.

Known results for compounds:
1) COc1ccccc1/C=N\NC(=S)Nc1ccc(F)cc1 = 78.4
2) Oc1c(-c2cc(C(F)(F)F)[nH]n2)cc(Cl)c(OCc2ccc(Cl)cc2)c1-c1ccc(Cl)c(C(F)(F)F)c1 = 1.76
3) O=C(/C=C/c1cccc([N+](=O)[O-])c1)c1ccc(Nc2nc(N3CCCCC3)nc(N3CCCCC3)n2)cc1 = 92.9

The recorded growth for CCCC(CCC)NCC(O)c1cc(-c2ccc(C(F)(F)F)cc2)nc(C(F)(F)F)c1 (stereo not drawn) is -64.2

Documented growth of CC1CN(CCCOC(=O)Nc2ccc(Cl)cc2)CCN1C(C)(C)C (stereo not drawn) : 91.9

Item: C/C(=N\NC(=S)N1CCCCC1)c1ccccn1 | growth: 13.4

Please fill in: growth reported for CC[C@H](Nc1nc(N)nc(C2CC2)c1C#N)c1nc2cccc(NCc3ccc(C(=O)NO)cc3)c2c(=O)n1-c1ccccc1 = -89.2

Measured growth, Cc1[nH]nc2ccc3nc(-c4ccc5[nH]ncc5c4)c4c(c3c12)CCCC4 : 29.6

Given item CCN(CC)CCCC(C)Nc1cnc(C(=O)Nc2cc(C)cc3cccnc23)cn1 (stereo not drawn) , the value recorded as its growth is 87

Measured growth, N#Cc1nc(-c2ccc(Cl)cc2)cc(-c2ccc(Nc3nc(N4CCCCC4)nc(N4CCCCC4)n3)cc2)c1N : 95.8

Short answer for CC(=O)OC1Oc2ccccc2-c2oc3nc(=N)n(C)c-3cc21 (stereo not drawn) : growth was 103

The compound listed as COc1ccc(-n2nc(C(=O)NCC(=O)Nc3nc4cc(OC)ccc4s3)c3ccccc3c2=O)cc1 has a reported growth of -32.4

Looking up Cc1cc(C)c(C#N)c(SCC(=O)c2sc3c(C#N)c(C)cc(C)[n+]3c2[O-])n1 , I found its growth recorded as 20.4

The recorded growth for entry C#CC[C@@H]1C[C@]2(C)[C@H]3CC[C@@H]4[C@H]5C(C(=C)C)CC[C@]5(C(=O)NCCCCCCCCN)CC[C@@]4(C)[C@]3(C)CC[C@H]2C(C)(C)[C@H]1OC(C)=O (stereo partly drawn) equals 55

---

This listing pairs molecules with measured growth.
System: COLO 205 colon
measurement.protocol: NCI-60 one-dose screen, 48 h (100 = growth as untreated, 0 = no growth, -100 = all killed)
assay.setup: 10 µM unless noted
Compounds without any hit were thinned out: in the full panel of roughly 83,000, 20% have a hit.
Return type: number; implicit unit %.

Examples with their reported growth follow.
1) COc1ccc(Br)c2ccccc12 = 120
2) CC1=NN(c2cccc(S(N)(=O)=O)c2)C(=O)C1 = 108

// next item, growth requested
Data point: COc1ccccc1/C=N\NC(=S)Nc1ccc(F)cc1 ; growth = 91.9

---

System: UACC-257 melanoma
measurement.protocol: NCI-60 one-dose screen, 48 h
assay.setup: 10 µM unless noted
About 83,000 compounds went through this panel and 20% of them were active in at least one assay; those are over-represented in the sample as a whole. Calls of active or inactive are those of the source. How the source made its calls: active means growth percent below 10; inactive means the rest.
Pick from true (1) for active, false (0) for inactive when you respond.

Examples with answers:
1. CC1(C)CC[C@]2(C(=O)N3CCNCC3)CC[C@]3(C)C(=CC[C@@H]4[C@@]5(C)CCC(=O)C(C)(C)[C@@H]5CC[C@]43C)[C@@H]2C1 = false (0)
2. FC(F)(F)C1=NNC(c2ccc3ccccc3c2)=NN1 = false (0)
3. NC(=O)c1noc(C(=O)c2ccccc2)c1N = false (0)
4. C=C1NC(=O)C(C(C)CC)NC(=O)C2CSCC(NC(=O)CCC(=O)O)C(=O)NC(Cc3ccccc3)C(=O)NC(C)C(=O)NC(CC(C)CC)C(=O)NC(C(=O)NC(Cc3ccccc3)C(=O)N3CCCC3C(=O)N2)C(C)OC(=O)C(CO)NC(=O)C(C(O)COC)N(C)C(=O)C(C(C)C)NC(=O)C(CC(C)CC)NC1=O (stereo unspecified) = false (0)
5. C[C@@H]1C[C@H](N)C[C@H](c2ccncc2NC(=O)c2ccc(F)c(-c3c(F)cccc3F)n2)C1 = true (1)

# input for lookup
// query Called result for N#Cc1nc(-c2ccc(Cl)cc2)cc(-c2ccc(Nc3nc(N4CCCCC4)nc(N4CCCCC4)n3)cc2)c1N
// result false (0)

---

Test system: DU-145 prostate
measurement.protocol: NCI-60 one-dose screen, 48 h (100 = growth as untreated, 0 = no growth, -100 = all killed)
assay.setup: 10 µM unless noted
The panel holds about 83,000 compounds, 20% with a hit somewhere; the sample as a whole holds those more often.
This section presents compounds with their documented growth values.
A number alone suffices; assume %.

Looking up O=C(OCc1ccc2c(Cl)cc(Cl)c(O)c2n1)c1cc2ccccc2[nH]1 , I found its growth recorded as -94.5

O=C(CCc1nc2sc3c(c2c(=O)[nH]1)CCC3)NCc1cn(-c2ccccc2)nc1-c1ccccc1 has a reported growth of 48.7

In plain terms, Cc1nc2ccc(Nc3nc(NCCN4CCOCC4)nc(Nc4ccc(F)cc4)n3)cc2n1Cc1ccccc1 has a documented growth of 59.2

COc1ccc(/C=C2\N=C(c3cccnc3)N(c3ccccc3)NC2=O)cc1 yielded growth of 104

The reported growth of the compound CCOC(=O)c1sc2nc(-c3cc4ccccc4o3)cc(-c3ccc(Cl)cc3)c2c1N was 99.6

The reported growth of the compound O=C(Oc1c(Cl)c(Cl)c(Cl)c(Cl)c1Cl)C1CCCN1C(=O)OCc1ccccc1 (configuration not stated) was 60.9

# compound COc1cc(C)c2c(=O)c3c(oc2c1)C(=O)c1c(O)c(OC)cc(O)c1C3=O ; its growth = 26.8

// field: growth; key: Cc1cccc(C(=O)O)n1 ; value = 116
